Property: IC50; scope: individual molecules
studyTarget: Recombinant HLA-A*201 (Homo sapiens, UniProt P04439, D140Y/D185E/D98H/E176V/E277Q/G131W/G231S/I119V/I121R/I166T/I218V/L300P/L318F/N151K/N90K/P208A/P217A/Q86G/Q94H/R138H/R169H/T345S)
experimentalDetails: biochemical
Type: binding
experimentalConditions: 20°C, 48 h; standard peptide HBV core 47-56 (52->C); read-out: HLA-A2 Binding Affinity(IC50; µM)
Where a SMILES comes first, the peptide text is derived from it.
Write the value in µM as a bare number.

Completed entries (count: 2):
CC[C@H](C)[C@H](NC(=O)[C@H](CC(C)C)NC(=O)[C@H](CO)NC(=O)[C@@H]1CCCN1C(=O)CNC(=O)[C@H](CCSC)NC(=O)CN)C(=O)NCC(=O)N[C@@H](CC(C)C)C(=O)O [158-166] (H-GMGPSLIGL-OH)	1.4
CC(C)C[C@H](NC(=O)[C@@H](N)CCCNC(=N)N)C(=O)N[C@@H](Cc1c[nH]c2ccccc12)C(=O)N[C@H](C(=O)N[C@@H](Cc1ccc(O)cc1)C(=O)N[C@@H](CS)C(=O)NCC(=O)N[C@@H](CC(N)=O)C(=O)NCC(=O)N[C@H](C(=O)O)[C@@H](C)O)C(C)C [206-215] (H-RLWVYCGNGT-OH)	2

Given CC(C)C[C@H](NC(=O)[C@H](CC(N)=O)NC(=O)[C@H](CO)NC(=O)[C@H](CO)NC(=O)[C@H](CCCNC(=N)N)NC(=O)[C@@H](NC(=O)[C@H](Cc1ccccc1)NC(=O)[C@H](CC(N)=O)NC(=O)[C@H](CCC(=O)O)NC(=O)[C@H](CC(C)C)NC(=O)[C@@H](N)Cc1ccccc1)C(C)C)C(=O)O [228-238] (H-FLENFVRSSNL-OH) , state its recorded IC50. 1.2

====

studyTarget: Recombinant HLA-A*201 (Homo sapiens, UniProt P04439, D140Y/D185E/D98H/E176V/E277Q/G131W/G231S/I119V/I121R/I166T/I218V/L300P/L318F/N151K/N90K/P208A/P217A/Q86G/Q94H/R138H/R169H/T345S)
experimentalDetails: biochemical
Type: binding
experimentalConditions: 20°C, 48 h; standard peptide HBV core 47-56 (52->C); read-out: HLA-A2 Binding Affinity(IC50; µM)
Where a SMILES comes first, the peptide text is derived from it.
Label Criterion met when IC50 < 0.3 µM; otherwise Criterion not met.

Please review the following examples before continuing.
CC[C@H](C)[C@H](NC(=O)[C@@H](N)Cc1ccccc1)C(=O)N[C@@H](Cc1ccc(O)cc1)C(=O)N[C@@H](C)C(=O)NCC(=O)N[C@@H](CO)C(=O)N[C@@H](CC(C)C)C(=O)N[C@@H](CO)C(=O)N[C@@H](C)C(=O)N[C@@H](CC(C)C)C(=O)O [143-152, FIYAGSLSAL] (H-FIYAGSLSAL-OH)	Criterion met
CC(C)C[C@H](NC(=O)[C@H](CCCNC(=N)N)NC(=O)[C@@H](NC(=O)[C@H](CC(N)=O)NC(=O)[C@H](CC(N)=O)NC(=O)[C@H](C)NC(=O)[C@@H](NC(=O)[C@H](CC(C)C)NC(=O)[C@@H](N)CCCCN)C(C)C)[C@@H](C)O)C(=O)N[C@@H](Cc1c[nH]c2ccccc12)C(=O)N[C@H](C(=O)O)C(C)C [199-209] (H-KLVANNTRLWV-OH)	Criterion not met
CC(C)C[C@H](NC(=O)[C@H](Cc1c[nH]c2ccccc12)NC(=O)[C@H](CCC(N)=O)NC(=O)[C@@H]1CCCN1C(=O)[C@H](CC(C)C)NC(=O)[C@H](CCC(=O)O)NC(=O)[C@H](CO)NC(=O)[C@@H](NC(=O)[C@@H](N)CC(C)C)[C@@H](C)O)C(=O)O [101-109] (H-LTSELPQWL-OH)	Criterion not met

In the following, a different compound is considered.
API: query returns whether the compound falls strictly under 0.3 µM in IC50. Query: CC(C)C[C@H](NC(=O)CNC(=O)[C@H](CC(=O)O)NC(=O)[C@H](CC(C)C)NC(=O)[C@H](CC(C)C)NC(=O)[C@@H](N)Cc1ccc(O)cc1)C(=O)N[C@@H](CCCNC(=N)N)C(=O)N[C@@H](C)C(=O)O [37-44] (H-YLLDGLRA-OH) Criterion not met
